Molecular target: Ubiquitin carboxyl-terminal hydrolase 17-like protein 5 (Homo sapiens) (UniProt A8MUK1)
Sequence (A8MUK1 whole entry, looked up): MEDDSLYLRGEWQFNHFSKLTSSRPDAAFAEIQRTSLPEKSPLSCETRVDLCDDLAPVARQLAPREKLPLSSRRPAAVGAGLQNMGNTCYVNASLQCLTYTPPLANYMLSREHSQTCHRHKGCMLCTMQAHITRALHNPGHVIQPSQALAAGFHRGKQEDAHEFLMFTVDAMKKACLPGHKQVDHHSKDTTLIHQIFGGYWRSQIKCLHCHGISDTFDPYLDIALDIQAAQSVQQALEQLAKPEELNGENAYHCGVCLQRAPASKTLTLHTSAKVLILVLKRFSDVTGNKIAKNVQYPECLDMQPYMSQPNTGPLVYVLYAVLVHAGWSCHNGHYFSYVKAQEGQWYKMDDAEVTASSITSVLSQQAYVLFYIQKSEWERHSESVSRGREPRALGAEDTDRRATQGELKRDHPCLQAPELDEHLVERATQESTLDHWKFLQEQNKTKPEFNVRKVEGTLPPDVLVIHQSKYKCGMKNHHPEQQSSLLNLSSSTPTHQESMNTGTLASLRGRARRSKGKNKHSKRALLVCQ
Assay: ubiquitin-specific protease 17 DUB inhibitors, concentration-effect assay, cell-free, verification of initial screening actives (AID 1645864)
Conditions: purified USP17, ubiquitin-rhodamine cleavage fluorescence, 3 h
Activity calls are given as the source filed them.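 Rule for the calls: active = maximal inhibition of USP17 at or above 30% in the confirmation dose-response, a value not among the printed readouts; inactive = the rest.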
measurement-name: IC50

# count of solved cases: 4
[[record]]
molecule = "O=C(Nc1ccc(Cl)cc1)Nc1cccn2ncnc12"
system_tested = "Ubiquitin carboxyl-terminal hydrolase 17-like protein 5 (Homo sapiens) (UniProt A8MUK1)"
reported_measurement = "21.7 µM"

[[record]]
molecule = "COc1cccc2c1NC(=O)C21CCN(C(=O)Nc2cccc3ccccc23)CC1"
system_tested = "Ubiquitin carboxyl-terminal hydrolase 17-like protein 5 (Homo sapiens) (UniProt A8MUK1)"
reported_measurement = "> 50 µM (inactive)"

[[record]]
molecule = "C=C1CCC2[C@](C)(CCC[C@]2(C)C(=O)OC)[C@H]1CCc1ccoc1C[N+](C)(C)Cc1ccccc1 (stereo not given in full)"
system_tested = "Ubiquitin carboxyl-terminal hydrolase 17-like protein 5 (Homo sapiens) (UniProt A8MUK1)"
reported_measurement = "> 50 µM (inactive)"

[[record]]
molecule = "O=C1N[C@@H](Cc2ccccc2)C(=O)N2[C@H]3Nc4ccccc4[C@@]3([C@]34C[C@H]5C(=O)N[C@@H](Cc6ccccc6)C(=O)N5[C@H]3Nc3ccccc34)C[C@@H]12"
system_tested = "Ubiquitin carboxyl-terminal hydrolase 17-like protein 5 (Homo sapiens) (UniProt A8MUK1)"
reported_measurement = "38.4 µM"


Short answer for Cc1nc2sc(C(=O)Nc3ccccc3Br)c(N)c2c(C)c1C : IC50 was 1.12 µM

Short answer for Fc1cccc(-n2cc(-c3noc(-c4ccc[nH]4)n3)nn2)c1 : IC50 was 36.4 µM

Short answer for Cc1cccc(COc2ccc(C3SCC(=O)Nc4n[nH]c(C)c43)cc2)c1 (stereo not given) : IC50 was 20.6 µM

Short answer for O=C(CSc1ncnc2c1oc1ccccc12)Nc1ccc2c(c1)OCCO2 : IC50 was 29 µM

Short answer for COc1cccc(-n2ccc(=O)c(-c3nc(-c4ccccc4Cl)no3)n2)c1 : IC50 was > 50 µM (inactive)

Short answer for CC1CCCCN1c1nc(F)c2c(c1F)S(=O)(=O)CCN2Cc1ccccc1 (stereo not given) : IC50 was > 50 µM (inactive)

Short answer for COc1cccc(C(=O)Oc2ccc3c(=O)c(-c4ccc(OC)c(OC)c4)coc3c2)c1 : IC50 was 0.167 µM

Short answer for O=C(Nc1ccc2c(c1)OCO2)C1CCN(Cc2nc3ccccc3s2)CC1 : IC50 was > 50 µM (inactive)

###

Target: Ubiquitin carboxyl-terminal hydrolase 17-like protein 5 (Homo sapiens) (UniProt A8MUK1)
Test: ubiquitin-specific protease 17 DUB inhibitors, concentration-effect assay, cell-free, verification of initial screening actives (AID 1645864)
Details: purified USP17, ubiquitin-rhodamine cleavage fluorescence, 3 h
Activity calls are given as the source filed them.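 Rule for the calls: active = maximal inhibition of USP17 at or above 30% in the confirmation dose-response, a value not among the printed readouts; inactive = the rest.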
measurement-name: IC50

Short answer for CC(C)CCn1c(=O)c2ccccc2n2c(CCC(=O)NC3CCCCCC3)nnc12 : IC50 was > 50 µM (inactive)

Short answer for Cn1c(=O)[nH]c2nncnc2c1=O : IC50 was 7.23 µM

Short answer for O=C(c1ccc(Cl)cc1)c1c[nH]cc1-c1c(F)cccc1Cl : IC50 was 36.3 µM

Short answer for Cc1cccc(NC(=O)c2nn(C)c3ccccc3c2=O)c1 : IC50 was 27.1 µM

Short answer for CCc1nc2cc(NC(=O)c3cccc(N4CCCC4=O)c3)ccc2n1C : IC50 was > 50 µM (inactive)

###

Biological target: Ubiquitin carboxyl-terminal hydrolase 17-like protein 5 (Homo sapiens) (UniProt A8MUK1)
Assay: ubiquitin-specific protease 17 DUB inhibitors, concentration-effect assay, cell-free, verification of initial screening actives (AID 1645864)
Settings: purified USP17, ubiquitin-rhodamine cleavage fluorescence, 3 h
The source made the active and inactive calls.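 The calls were made as follows: active = maximal inhibition of USP17 at or above 30% in the confirmation dose-response, a value not among the printed readouts; inactive = the rest.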
Answer with one of the outcomes given here: Y (active), N (inactive)

[[record]]
compound = "COc1ccc(OC)c(-c2cc(C(=O)Nc3c(C)nn(Cc4ccccc4)c3C)no2)c1"
label_class = "N"

[[record]]
compound = "CCOC(=O)c1ccc(S(=O)(=O)N2CCC(C(=O)OC(C)C(=O)Nc3cccc([N+](=O)[O-])c3)CC2)cc1 (stereo not given)"
label_class = "Y"

[[record]]
compound = "COc1ccc(/C=C/c2ccnc3nc(-n4cccc4)nn23)cc1"
label_class = "N"


## Input Dear colleague, could you share the recorded outcome for CO[C@H]1CC[C@H](O)c2c1oc1c3c4c(c(O)c1c2=O)-c1c(cc2c(Cl)c(C)n(N)c(=O)c2c1O)C[C@@H]4OCO3 when you have a moment?
## Output Y

## Input Dear colleague, could you share the recorded outcome for CC1=CN2C(=N)/C(=C/c3cn(Cc4ccc(Cl)cc4)c4ccccc34)C(=O)N=C2S1 when you have a moment?
## Output N

###

Target: Ubiquitin carboxyl-terminal hydrolase 17-like protein 5 (Homo sapiens)
Test: ubiquitin-specific protease 17 DUB inhibitors, concentration-effect assay, cell-free, verification of initial screening actives (AID 1645864)
Settings: purified USP17, ubiquitin-rhodamine cleavage fluorescence, 3 h
Activity calls are given as the source filed them.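 How the source made its calls: active means maximal inhibition of USP17 at or above 30% in the confirmation dose-response, a value not among the printed readouts; inactive means the rest.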
Answer with one of the outcomes given here: active, inactive

[[record]]
compound = "COc1ccc(C(=O)NCC(c2ccc3c(c2)CCCN3C)N2CCCC2)cc1 (stereo not drawn)"
label_class = "inactive"

[[record]]
compound = "CCOC(=O)c1cc2c(ccn2C)n1CC(=O)N1CCc2ccccc2C1"
label_class = "inactive"


Here's the next entry for you.
## Input Dear colleague, could you share the recorded outcome for COc1ccc2c(c1)CCc1c(C(=O)NCc3cccnc3)noc1-2 when you have a moment?
## Output active

###

Target: Ubiquitin carboxyl-terminal hydrolase 17-like protein 5 (Homo sapiens)
Experiment: ubiquitin-specific protease 17 DUB inhibitors, concentration-effect assay, cell-free, verification of initial screening actives (AID 1645864)
Settings: purified USP17, ubiquitin-rhodamine cleavage fluorescence, 3 h
Activity calls are given as the source filed them.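 How the source made its calls: active means maximal inhibition of USP17 at or above 30% in the confirmation dose-response, a value not among the printed readouts; inactive means the rest.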
measurement-name: IC50

# count of solved cases: 9
[[record]]
molecule = "CCc1ccccc1NC(=O)c1cc(-c2ccccn2)n[nH]1"
measurement_name = "IC50"
reported_measurement = "31 µM"

[[record]]
molecule = "O=C(Nc1nc2ccccc2s1)c1ccc2c(c1)C(=O)N(Cc1cccnc1)C2=O"
measurement_name = "IC50"
reported_measurement = "4.06 µM"

[[record]]
molecule = "CC(OC(=O)CNC(=O)c1ccc(Br)cc1)C(=O)Nc1ccc2c(c1)OCCO2 (stereo not given)"
measurement_name = "IC50"
reported_measurement = "30.4 µM"

[[record]]
molecule = "CC1(C)Cc2nc3sc4c(=O)n(CC(=O)NCc5ccccc5)cnc4c3cc2CO1"
measurement_name = "IC50"
reported_measurement = "44.9 µM"

[[record]]
molecule = "Cc1ccc(NC(=O)C2CCN(c3cncnc3N3CCCC3)CC2)cc1"
measurement_name = "IC50"
reported_measurement = "> 50 µM (inactive)"

[[record]]
molecule = "COc1ccc(NC(=O)c2nnn(-c3ccccc3C)c2C)cc1OC"
measurement_name = "IC50"
reported_measurement = "> 50 µM (inactive)"

[[record]]
molecule = "O=C(/C=C/c1ccco1)c1cccc([N+](=O)[O-])c1"
measurement_name = "IC50"
reported_measurement = "22.6 µM"

[[record]]
molecule = "Cc1ccc2[nH]c(=O)c(-c3nc4ccc(C)cn4c3NCc3ccc(F)cc3)cc2c1"
measurement_name = "IC50"
reported_measurement = "1.98 µM"

[[record]]
molecule = "COC1=C(C2=C(OC)C(=O)c3cc4c(c(O)c3C2=O)C(=O)OC(C)C4)C(=O)c2c(cc3c(c2O)C(=O)OC(C)C3)C1=O (stereo not given)"
measurement_name = "IC50"
reported_measurement = "0.0977 µM"


Short answer for N#Cc1cccnc1N1CCN(C(=O)Nc2cccc3ccccc23)CC1 : IC50 was 29.2 µM

###

Target: Ubiquitin carboxyl-terminal hydrolase 17-like protein 5 (Homo sapiens) (UniProt A8MUK1)
Assay: ubiquitin-specific protease 17 DUB inhibitors, concentration-effect assay, cell-free, verification of initial screening actives (AID 1645864)
Conditions: purified USP17, ubiquitin-rhodamine cleavage fluorescence, 3 h
Active and inactive are the calls of the source.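 The calls were made as follows: active = maximal inhibition of USP17 at or above 30% in the confirmation dose-response, a value not among the printed readouts; inactive = the rest.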
Answer with one of the outcomes given here: active, inactive

Examples with answers:
[[record]]
molecule = "O=C(Nc1nnc2n1CCCS2)c1cccc(Cl)c1"
system_tested = "Ubiquitin carboxyl-terminal hydrolase 17-like protein 5 (Homo sapiens) (UniProt A8MUK1)"
label_class = "inactive"

[[record]]
molecule = "C/C=C\\C1=CC(=O)[C@]23C[C@H]2[C@]2(C)CO[C@@]1(O)[C@@]3(O)O2"
system_tested = "Ubiquitin carboxyl-terminal hydrolase 17-like protein 5 (Homo sapiens) (UniProt A8MUK1)"
label_class = "inactive"

[[record]]
molecule = "O=C(c1ccsc1)N1CCC2(C1)Nc1cccnc1NC2=NC1CCCC1 (stereo not given)"
system_tested = "Ubiquitin carboxyl-terminal hydrolase 17-like protein 5 (Homo sapiens) (UniProt A8MUK1)"
label_class = "inactive"


## Input Dear colleague, could you share the recorded outcome for Clc1cccc(N2CCN(c3ncnc4nc[nH]c34)CC2)c1 when you have a moment?
## Output inactive

## Input Dear colleague, could you share the recorded outcome for N[C@@H](Cc1ccccc1)C(=O)N1CCC2(CC1)CN(C(=O)c1ccc(Cl)cc1)CCO2 when you have a moment?
## Output inactive
